system.under.test: Human factor Xa (Homo sapiens, UniProt P00742)
Construct: leads from XII to XIIa to XIa to IXa and to the conversion of X to Xa; purchased Enzyme Research Laboratories, South Bend IN
Sequence (P00742 235-488 limits assumed): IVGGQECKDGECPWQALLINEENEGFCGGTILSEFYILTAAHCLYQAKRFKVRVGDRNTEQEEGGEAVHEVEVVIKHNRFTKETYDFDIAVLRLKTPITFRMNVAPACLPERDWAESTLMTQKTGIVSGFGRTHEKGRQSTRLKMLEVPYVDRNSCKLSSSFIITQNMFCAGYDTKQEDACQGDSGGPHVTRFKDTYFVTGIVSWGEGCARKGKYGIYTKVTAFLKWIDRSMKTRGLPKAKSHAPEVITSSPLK
Sequence (P00742 41-179 limits assumed): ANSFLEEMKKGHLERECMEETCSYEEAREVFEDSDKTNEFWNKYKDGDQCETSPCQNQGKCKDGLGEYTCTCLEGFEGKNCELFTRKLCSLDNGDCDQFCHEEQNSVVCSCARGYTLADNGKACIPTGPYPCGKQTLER
assay: Xa Assay
Format: biochemical
particulars: % inhibition at 30 µM (cells with % or %@30, bare 0)
measurement.name: IC50 or % Inhibition Factor Xa (30 µM)

compound | IC50 or % Inhibition Factor Xa (30 µM)
N=C(N)c1ccc(CNC(=O)Cn2c(-c3ccsc3)c(Cl)nc(NCCc3ccccc3)c2=O)cc1 [1517-13] | 0%
C[Si](C)(C)CNc1nc(Cl)c(-c2ccccc2)n(CC(=O)NCc2ccc(C(=N)N)cc2)c1=O [1517-36] | 0%
Nc1cccc(-c2c(Cl)nc(NC3CCC3)c(=O)n2CC(=O)NCc2ccccc2)c1 [compound 99] | 8%@30
N=C(N)c1ccc(CNC(=O)Cn2c(-c3ccc(-c4ccccc4)cc3)c(Cl)nc(NCCc3cccnc3)c2=O)cc1 [1471-72] | 22%
N=C(N)c1ccc(CNC(=O)Cn2c(-c3ccccc3)c(Cl)nc(NCc3ccc(C(F)(F)F)cc3F)c2=O)cc1 [1512-26] | 5%

// for each compound in input: emit IC50 or % Inhibition Factor Xa (30 µM)
1. N=C(N)c1ccc(CNC(=O)Cn2c(-c3ccccc3)c(Cl)nc(NCCCn3ccnc3)c2=O)cc1 [1507-05]
2. N=C(N)c1ccc(CNC(=O)Cn2c(-c3ccccc3)c(Cl)nc(NC(c3ccccc3)c3ccccc3)c2=O)cc1 [1507-35]

Reply:
1. 10%
2. 28%

Ask: Which value of IC50 or % Inhibition Factor Xa (30 µM) has been reported for N=C(N)c1ccc(CNC(=O)Cn2c(-c3ccc4c(c3)OCO4)c(Cl)nc(NCc3ccncc3)c2=O)cc1 [1471-43] in the records?
Reply: 18%
